Test system: CCRF-CEM leukemia
Test: NCI tumour cell line growth inhibition, 48 h; in the data active means GI50 below about 0.43 µM; inactive means the rest
Pick one: 1.0 for active, 0.0 for inactive

Lab log entry: COc1ccc(-c2nc3sccn3c2/C=C/C(=O)c2cc(OC)c(OC)c(OC)c2)cc1 — outcome as called in the assay?
0.0

Lab log entry: COc1ccc(C2CC(c3cccc(Nc4ccncc4)c3)=NN2c2ccccc2)cc1 (centres undefined) — outcome as called in the assay?
0.0

Lab log entry: Cc1nc2sc(C(=O)Nc3cccc(Cl)c3)c(N)c2cc1C(O)c1ccccc1 (centres undefined) — outcome as called in the assay?
0.0

Lab log entry: CN1CCC(C(=O)Nc2n[nH]c3nnc(-c4ccccc4)cc23)CC1 — outcome as called in the assay?
0.0

Lab log entry: Nc1c([N+](=O)[O-])ncn1C1OC(CO)C(O)C1O (centres undefined) — outcome as called in the assay?
0.0

Lab log entry: C#CCN(CCCOc1ccc(Cl)cc1Cl)CCCSC(=O)CCCCCN1/C(=C\C=C2/CCCC(/C=C/C3=[N+](CCCCCC(=O)[O-])c4ccccc4C3(C)C)=C2Cl)C(C)(C)c2ccccc21 — outcome as called in the assay?
1.0

Lab log entry: NCC[PH+](c1ccccc1)c1ccccc1.NCC[PH+](c1ccccc1)c1ccccc1.[Cl-].[Pt+4] — outcome as called in the assay?
0.0

Lab log entry: O=C(Cc1csc2nc(-c3ccc(Br)cc3)cn12)N/N=C/c1ccccc1O — outcome as called in the assay?
0.0

Lab log entry: COC(=O)c1sc(=S)c2sc(C(=O)OC)c(C(=O)OC)c2c1C(=O)OC — outcome as called in the assay?
0.0

----------
// reported TGI per item
System: SN12C renal
Experiment: NCI tumour cell line growth inhibition, 48 h
Where a SMILES comes first, the peptide text is derived from it. The star is where a group is joined. Fmoc = O=C(OCC1c2ccccc2-c2ccccc21)*; OBn = c1ccc(CO*)cc1; tBu = CC(C)(C)*

Guide cases for TGI, answers given:
# Compound, Tested System, TGI
data = [
    ("CC(OC(C)(C)C)C(NC(=O)OCC1c2ccccc2-c2ccccc21)C(=O)NC(Cc1ccccc1)C(=O)OCc1ccccc1 (configuration not stated) (Fmoc-Thr(tBu)-Phe-OBn; configuration not given here)", "SN12C renal", "> 100 µM"),
    ("COc1cc2c(cc1OCCN1CCN(CCOc3cc4c(cc3OC)C(=O)N3CCC[C@H]3C=N4)CC1)N=C[C@@H]1CCCN1C2=O", "SN12C renal", "> 100 µM"),
    ("Cc1cc(S(=O)(=O)NC2=NCc3c(F)cccc3N2)c(S)cc1Cl", "SN12C renal", "> 100 µM"),
]

Supply measured TGI of Nc1cccc(C(=O)/C=C/c2ccccc2O)c1 in your reply.
> 100 µM

Supply measured TGI of Cc1cc(N(CCC#N)CCC#N)ccc1/C=C1N=C(/C=C\c2ccccc2)N(c2ccc(C(=O)O)cc2)C\1=O in your reply.
> 100 µM

Supply measured TGI of CCOC(=O)/C=C(/OCC)[C@@H]1C(C(=O)c2ccc(Cl)cc2)[C@@H]1/C(=C\C(=O)OCC)OCC (some centres not stated) in your reply.
> 100 µM

Supply measured TGI of CCOC(=O)/C(=C/c1cn(C(C)=O)c2ccccc12)P(=O)(OC)OC in your reply.
> 100 µM

Supply measured TGI of CN(C)CCC(/C=C/c1ccccc1)=N\Nc1c(F)c(F)c(F)c(F)c1F in your reply.
> 100 µM

Supply measured TGI of CC(C)(C)OC(=O)CC(S(=O)(=O)c1ccccc1)S(=O)(=O)c1ccccc1 in your reply.
29.6 µM

Supply measured TGI of CC[C@]1(O)C[C@@H]2CN(CCc3c([nH]c4ccccc34)[C@@](C(=O)OC)(c3cc4c(cc3OC)N(C)[C@H]3[C@@](O)(C(=O)OC)[C@H](OC(=O)CCCBr)[C@]5(CC)C=CCN6CC[C@]43[C@@H]65)C2)C1 in your reply.
> 100 µM

Supply measured TGI of COc1cc2c(cc1OC)C(Sc1ccc(Cl)cc1)c1c(nc(N)c(C#N)c1N)O2 (configuration not stated) in your reply.
2.94 µM

Supply measured TGI of Clc1ccc(-c2nn3c(COc4ccc(OCc5nnc6sc(-c7ccc(Cl)cc7)nn56)c(Cl)c4)nnc3s2)cc1 in your reply.
> 100 µM

Supply measured TGI of Fc1cccc(C2ON=C(c3ccccc3)N2C23CC4CC(CC(C4)C2)C3)c1 (configuration not stated) in your reply.
> 10 µM
